Provenance of the data: paper PMC9632963

Experiment: Phase I trial: clinical pharmacokinetics in plasma
Format: in vivo, human
Conditions: human, plasma, oral, 60 mg, Multiple doses day 28, 60 mg, n=3, Geometric Mean (CV%); read-out: AUC0-168
measurement-kind: AUC(0-t) (ng·h/mL)

INSERT INTO results (compound, measurement_kind, recorded_number) VALUES
  ('Cc1c(C(=O)Nc2ccc(Oc3ccnc4cc(OCC(C)(C)O)ccc34)c(F)c2)c(=O)n(-c2ccccc2)n1C [CT053PTSA]', 'AUC(0-t)', 89700);

----------
Assay: Phase I trial: clinical pharmacokinetics in plasma
Assay type: in vivo, human
Conditions: human, plasma, oral, 60 mg, Multiple doses day 28, 60 mg, n=3, Geometric Mean (CV%); read-out: AUC0-τ
measurement-kind: AUC (ng·h/mL)

INSERT INTO measurements (chem_smiles, measurement_kind, recorded_number) VALUES
  ('Cc1c(C(=O)Nc2ccc(Oc3ccnc4cc(OCC(C)(C)O)ccc34)c(F)c2)c(=O)n(-c2ccccc2)n1C', 'AUC', 37000);

----------
Biological target: FRK (Homo sapiens)
Sequence (P42685 whole entry): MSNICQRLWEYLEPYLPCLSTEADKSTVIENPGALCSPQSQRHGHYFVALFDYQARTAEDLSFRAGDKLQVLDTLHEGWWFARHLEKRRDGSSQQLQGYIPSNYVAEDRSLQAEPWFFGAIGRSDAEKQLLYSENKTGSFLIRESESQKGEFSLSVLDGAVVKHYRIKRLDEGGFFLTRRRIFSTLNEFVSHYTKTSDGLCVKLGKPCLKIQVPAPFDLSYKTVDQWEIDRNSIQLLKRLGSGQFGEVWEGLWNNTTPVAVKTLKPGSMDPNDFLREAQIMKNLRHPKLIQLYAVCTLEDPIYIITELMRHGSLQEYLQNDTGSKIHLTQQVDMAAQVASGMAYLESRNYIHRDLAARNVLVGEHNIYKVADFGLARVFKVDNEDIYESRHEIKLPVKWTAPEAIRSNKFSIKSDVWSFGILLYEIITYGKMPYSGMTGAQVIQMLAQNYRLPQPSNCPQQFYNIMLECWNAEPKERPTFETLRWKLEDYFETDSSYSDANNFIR
measurement-kind: IC50

INSERT INTO assay_data (molecule, result) VALUES
  ('Cc1c(C(=O)Nc2ccc(Oc3ccnc4cc(OCC(C)(C)O)ccc34)c(F)c2)c(=O)n(-c2ccccc2)n1C [CT053]', '0.52 µM');

----------
Target: Tyro3 (Homo sapiens, UniProt Q06418)
Sequence (Q06418 41-890): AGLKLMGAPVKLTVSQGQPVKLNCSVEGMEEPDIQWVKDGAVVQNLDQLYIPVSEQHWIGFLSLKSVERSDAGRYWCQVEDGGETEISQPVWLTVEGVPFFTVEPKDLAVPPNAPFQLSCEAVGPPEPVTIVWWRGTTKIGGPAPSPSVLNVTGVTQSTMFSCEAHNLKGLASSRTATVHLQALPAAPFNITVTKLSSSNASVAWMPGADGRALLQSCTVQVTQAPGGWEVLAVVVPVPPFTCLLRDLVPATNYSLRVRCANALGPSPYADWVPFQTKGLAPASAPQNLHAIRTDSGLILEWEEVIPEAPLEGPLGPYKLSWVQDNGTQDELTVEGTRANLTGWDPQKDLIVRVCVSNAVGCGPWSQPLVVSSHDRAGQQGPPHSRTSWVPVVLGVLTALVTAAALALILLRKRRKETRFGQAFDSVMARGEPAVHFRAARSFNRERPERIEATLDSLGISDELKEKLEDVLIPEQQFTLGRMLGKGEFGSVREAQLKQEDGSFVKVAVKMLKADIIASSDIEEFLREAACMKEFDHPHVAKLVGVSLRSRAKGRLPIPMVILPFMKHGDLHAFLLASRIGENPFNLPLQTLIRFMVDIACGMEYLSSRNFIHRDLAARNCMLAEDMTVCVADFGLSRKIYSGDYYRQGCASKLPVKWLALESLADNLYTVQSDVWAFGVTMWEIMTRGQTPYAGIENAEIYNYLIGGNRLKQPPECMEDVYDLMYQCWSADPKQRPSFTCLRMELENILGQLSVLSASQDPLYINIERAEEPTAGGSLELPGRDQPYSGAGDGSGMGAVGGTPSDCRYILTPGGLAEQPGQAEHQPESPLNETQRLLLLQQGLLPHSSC
pIC50: −log10 of the molar value.
measurement-kind: pIC50

INSERT INTO assay_data (chem_smiles, recorded_number) VALUES
  ('Cc1c(C(=O)Nc2ccc(Oc3ccnc4cc(OCC(C)(C)O)ccc34)c(F)c2)c(=O)n(-c2ccccc2)n1C', 6.82);

----------
Test: Phase I trial: clinical pharmacokinetics in plasma
Type: in vivo, human
Details: human, plasma, oral, 100 mg, Multiple doses day 28, 100 mg, n=5, Geometric Mean (CV%)
measurement-kind: AUC(0-inf)

INSERT INTO measurements (molecule, result) VALUES
  ('Cc1c(C(=O)Nc2ccc(Oc3ccnc4cc(OCC(C)(C)O)ccc34)c(F)c2)c(=O)n(-c2ccccc2)n1C [CT053PTSA]', '156 µg·h/mL');
